Measured values drawn from patent US6579881B2 for this set.

Form field: pKi (one value per entry).
target-or-system: α1 adrenalin receptor
assay-remarks: Binding test on [3H] prazosin (α1 adrenalin receptor)
Design: species or system rat
cond: [3H] prazosin about 0.2 nM, receptor fraction of rat cerebral cortex
pKi: −log10 of the molar value. Where a name gives a salt, the structure may show the parent alone.

compound	value-comparator	pKi
COc1cccc(Cc2ccc3c(c2)N(C2CCN(CCc4ccc(F)cc4)CC2)CC3)n1	<	6.70
O=C(Cc1ccc2ccn(C3CCN(CCc4ccc(F)cc4)CC3)c2c1)NCCO	=	6.65
O=C(Cc1ccc2ccn(C3CCN(CCc4ccccc4F)CC3)c2c1)NCCO	=	6.94
Fc1ccc(CCN2CCC(N3CCc4ccccc43)CC2)cc1	=	7.12
CCNC(=O)Cc1ccc2ccn(C3CCN(CCc4ccc(F)cc4)CC3)c2c1	=	7.09
CC(=O)NCc1ccc2ccn(C3CCN(CCc4ccccc4F)CC3)c2c1	=	7.01
COc1ccc(C(O)c2ccc3ccn(C4CCN(CCc5ccc(F)cc5)CC4)c3c2)cn1 (centres unmarked) [Example 318, Oxalate]	=	7.33
O=C(Cc1ccc2ccn(C3CCN(CCc4ccc(F)cc4)CC3)c2c1)NCc1ccccn1 [Example 341, Oxalate]	=	7.32
NC(=O)NCc1ccc2ccn(C3CCN(CCc4ccc(F)cc4)CC3)c2c1	=	7.42
CC(=O)NCc1ccc2c(C#N)cn(C3CCN(CCc4ccc(F)cc4)CC3)c2c1	=	7.58
COc1ccc2c(c1)N(C1CCCN(CCc3ccc(F)cc3)CC1)CC2 (centres unmarked)	=	6.77
O=C(CCO)NCc1ccc2ccn(C3CCN(CCc4ccccc4F)CC3)c2c1	=	6.79
CC(=O)NCc1ccc2ccn(C3CCN(CCc4cccc(F)c4)CC3)c2c1	=	6.91
O=C(CCCO)NCc1ccc2ccn(C3CCN(CCc4ccc(F)cc4)CC3)c2c1	=	6.83
O=C(CF)NCc1ccc2ccn(C3CCN(CCc4ccc(F)cc4)CC3)c2c1	=	7.13
O=C(CF)NCc1ccc2ccn(C3CCN(CCc4ccccc4F)CC3)c2c1	=	7.00
CNC(=O)Cc1ccc2ccn(C3CCN(CCc4ccccc4F)CC3)c2c1	=	7.60
